test: HPLC lipophilicity on IAM (immobilized artificial membrane, phosphatidylcholine) stationary phase; type: physicochemical; settings: Table S2; ACN 0.15 v/v in mobile phase, pH 7.4
Field: label. Allowed values: yes (1) (Log k IAM < 0.9) or no (0) (Log k IAM >= 0.9).

TEST_SMILES: O=C(COc1ccccc1)NNC(=S)Nc1cc(Cl)ccc1Cl
CLASS_ASSIGNMENT: no (0)
//
TEST_SMILES: O=C(COc1ccccc1)NNC(=S)Nc1ccc([N+](=O)[O-])cc1
CLASS_ASSIGNMENT: yes (1)
//
TEST_SMILES: O=C(COc1ccccc1)NNC(=S)Nc1ccc(I)cc1
CLASS_ASSIGNMENT: no (0)
//
TEST_SMILES: O=C(COc1ccccc1)NNC(=S)Nc1ccccc1
CLASS_ASSIGNMENT: yes (1)
